B1: 2M8U (parent)
chain: TKAQVIEAFKVFDRDGNGYVTVDYLRKVLNELGDMMPADEIEEMIYEADPQNSGYVQYETFVGMLFL

# Variants of: B1
# experimentSummary: folding stability dG (cDNA display proteolysis); higher = more stable
# conditionSummary: PBS, room temperature
We begin with a simple list: items and their reported folding stability dG.
quantityMeasured: folding stability dG (kcal/mol)

[[record]]
variantlabel = "Y55C"
numericresult = 3.44

[[record]]
variantlabel = "F61K"
numericresult = 1.35

[[record]]
variantlabel = "L32V"
numericresult = 3.26

[[record]]
variantlabel = "A48R"
numericresult = 2.9

[[record]]
variantlabel = "P50N"
numericresult = 3.05

[[record]]
variantlabel = "E59L"
numericresult = 3.47

[[record]]
variantlabel = "N30A"
numericresult = 3.62

[[record]]
variantlabel = "I41H"
numericresult = 2.52

[[record]]
variantlabel = "I45L"
numericresult = 3.19

[[record]]
variantlabel = "E7G"
numericresult = 2.87

[[record]]
variantlabel = "G54C"
numericresult = 2.59


These entries and their values trace back to the MegaScale stability set (Tsuboyama et al. 2023).
